Tested on: Mycobacterium tuberculosis
Assay: Antitubecular activity against Mycobacterium tuberculosis […] assessed as growth inhibition after 4 days by microplate Alamar blue assay
Format: functional
Conditions: 96 h
Rule: measured MIC below 0.07 µg/mL gets yes (1); anything equal to or greater than 0.07 µg/mL gets no (0).

NNC(=O)c1ccncc1 [ISONIAZID]; yes (1)
CC1=C[C@@]2(C)C(=C(C)[C@H]3[C@H]4C[C@@H](C)C[C@@H](C)[C@@H]4[C@@H]4Oc5ccc(cc5)CC5(O)NC(=O)C6(O[C@H]56)C(=O)[C@H]2[C@H]43)[C@H]1C (stereo partly specified); no (0)
CC1=C[C@@]2(C)C(=C(C)[C@H]3[C@H]4C[C@@H](C)C[C@@H](C)[C@@H]4[C@@H]4Oc5ccc(cc5)C[C@H]5C(=O)NC(=O)[C@@H]5C(=O)[C@H]2[C@H]43)[C@H]1C; no (0)
CC1=C[C@@]2(C)C(=C(C)[C@H]3[C@H]4C[C@@H](C)C[C@@H](C)[C@@H]4[C@@H]4Oc5ccc(cc5)C[C@@H]5C(=O)NC(=O)[C@H]5C(=O)[C@H]2[C@H]43)[C@H]1C; no (0)

## Task # strict comparison: is reported MIC < 0.07 µg/mL? input = CC1=C[C@@]2(C)C(=C(C)[C@H]3[C@H]4C[C@@H](C)C[C@@H](C)[C@@H]4[C@@H]4Oc5ccc(cc5)C[C@@H]5C(=O)N(C)C(=O)[C@H]5C(=O)[C@H]2[C@H]43)[C@H]1C
## Result no (0)

###

System: Vero
Assay: Cytotoxicity against African green monkey Vero cells after 72 hrs by MTS-PMS assay
Assay type: cell-based
Settings: Chlorocebus sabaeus
parameter-measured: IC50 (µM)
The reply should contain only the number, in µM.

## Task Provide IC50, system Vero, entry CC1=C[C@@]2(C)C(=C(C)[C@H]3[C@H]4C[C@@H](C)C[C@@H](C)[C@@H]4[C@@H]4Oc5ccc(cc5)CC5(O)NC(=O)C6(O[C@H]56)C(=O)[C@H]2[C@H]43)[C@H]1C (stereo not given in full)
## Result 35.7

## Task Provide IC50, system Vero, entry CO[C@H]1/C=C/O[C@@]2(C)Oc3c(C)c(O)c4c(O)c(c(/C=N/N5CCN(C)CC5)c(O)c4c3C2=O)NC(=O)/C(C)=C\C=C\[C@H](C)[C@H](O)[C@@H](C)[C@@H](O)[C@@H](C)[C@H](OC(C)=O)[C@@H]1C [RIFAMPIN]
## Result 132

## Task Provide IC50, system Vero, entry CC1=C[C@@]2(C)C(=C(C)[C@H]3[C@H]4C[C@@H](C)C[C@@H](C)[C@@H]4[C@@H]4Oc5ccc(cc5)C[C@@H]5C(=O)NC(=O)[C@H]5C(=O)[C@H]2[C@H]43)[C@H]1C
## Result 33.6

## Task Provide IC50, system Vero, entry CC1=C[C@@]2(C)C(=C(C)[C@H]3[C@H]4C[C@@H](C)C[C@@H](C)[C@@H]4[C@@H]4Oc5ccc(cc5)C[C@@H]5C(=O)N(C)C(=O)[C@H]5C(=O)[C@H]2[C@H]43)[C@H]1C
## Result 145

## Task Provide IC50, system Vero, entry CC1=C[C@@]2(C)C(=C(C)[C@H]3[C@H]4C[C@@H](C)C[C@@H](C)[C@@H]4[C@@H]4Oc5ccc(cc5)C[C@H]5C(=O)NC(=O)[C@@H]5C(=O)[C@H]2[C@H]43)[C@H]1C
## Result 32.4
